# ASSAY_COMMENT: MultiTox-Fluor Cytotoxicity Assay - LYMP1-001 - Dead Cells (AID 946);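 further: cells exposed to compound for 16 h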
# SETUP_CONDITIONS: LYMP1-001 lymphoblastoid cells, dead-cell protease fluorescence; series mostly up to 92.2 µM
Inconclusive results are not listed. The source made the active and inactive calls. The call rests on the fitted dose curve; in most records, active means well fitted cell-killing curve with a large enough effect; inconclusive means small, poorly fitted or top-dose-only effect, or effect the other way; inactive means flat fitted curve, though single readings scatter.
Give your call using only these classes: TRUE for active, FALSE for inactive

Please review the entries below; each comes with its answer.
query_smiles=CC(C)(c1ccc(O)cc1)c1ccc(O)cc1 class_assignment=FALSE
query_smiles=O=C(Oc1ccccc1)c1ccccc1O class_assignment=FALSE
query_smiles=Cc1ccc(O)cc1 class_assignment=FALSE

Given `OCc1c[nH]c2ccccc12` , state the outcome it received in this test. FALSE

Given `CCCCCCCCCCCCCCCC[n+]1ccccc1` , state the outcome it received in this test. TRUE

Given `COc1cc(C=O)ccc1O` , state the outcome it received in this test. FALSE

Given `Oc1ccccc1` , state the outcome it received in this test. FALSE

Given `CCCC(=O)c1cc(O)c(O)cc1O` , state the outcome it received in this test. FALSE

Given `Brc1ccccc1-c1ccccc1` , state the outcome it received in this test. FALSE

Given `Cc1cc(C(C)(C)C)c(O)c(C(C)(C)C)c1` , state the outcome it received in this test. FALSE
